Task for the reader: assign each of the following compounds its reported logD at 6 h.
- RUN_DESCRIPTION: Partition coefficient, logD of compound in octanol and phosphate buffer at pH 7.4 incubated for 6 hrs under shaking condition by HPLC-UV analysis
- Format: physicochemical

Look over these answered cases.
O=C(Nc1ccccc1)Nc1cccc(Nc2nccc(Nc3ccc4[nH]ccc4c3)n2)c1	≥ 4
Cn1cc2ccc(Nc3ccnc(Nc4cccc(NC(=O)Nc5ccccc5)c4)n3)cc2n1	≥ 4

### Prompt Fill in: logD at 6 h of `O=C(Nc1ccccc1)Nc1cccc(Nc2nccc(Nc3ccc4cc[nH]c4c3)n2)c1` is ___
### Response ≥ 4

====

Task for the reader: assign each of the following compounds its reported solubility.
- RUN_DESCRIPTION: Aqueous solubility of compound in PBS buffer at pH 7.4 by HPLC-UV analysis
- Type: physicochemical
One number for each entry, in µg/mL.

Look over these answered cases.
O=C(Nc1ccccc1)Nc1cccc(Nc2nccc(Nc3ccc4cc[nH]c4c3)n2)c1	0.44
O=C(Nc1ccccc1)Nc1cccc(Nc2nccc(Nc3ccc4[nH]ccc4c3)n2)c1	0.33

// next entry
### Prompt Fill in: solubility of `Cn1cc2ccc(Nc3ccnc(Nc4cccc(NC(=O)Nc5ccccc5)c4)n3)cc2n1` is ___
### Response 0.11
